# System: NS5A chimeric genotype 2a JFH-1 replicon with genotype 2b MD2b-1 strain NS5A gene (M31 present)
# Measurement Notes: microbe, parasite or virus in culture
# Format: cell-based, HCV
# Assay Setup: Hepatitis C virus, read-out: 2b (t) (nM)
# Procedure: Evaluation of Cell-Based Anti-HCV Activity: Antiviral potency (EC50) was determined using a Renilla luciferase (RLuc)-based HCV replicon reporter assay. […] 72 hours later, cells were lysed and Renilla luciferase activity quantified as recommended by the manufacturer (Promega-Madison, Wis.). […]
Measurement Type: EC50 (nM)
Give the value, in units of nM, as a plain number.

COC[C@H]1C[C@@H](c2nc3ccc4cc5c(cc4c3[nH]2)OCc2cc(-c3cnc([C@@H]4CCCN4C(=O)[C@@H](NC(=O)OC)C(C)C)[nH]3)ccc2-5)N(C(=O)[C@@H](NC(=O)OC)C(C)C)C1 has a reported EC50 of 0.135

Lookup result for COC[C@H]1C[C@@H](c2ncc(-c3ccc4c(c3)COc3cc5c(ccc6nc([C@@H]7CC[C@H](C)N7C(=O)[C@@H](NC(=O)OC)C(C)C)[nH]c65)cc3-4)[nH]2)N(C(=O)[C@H](NC(=O)OC)c2ccccc2)C1 ; measured EC50: 0.007

Given item COC[C@H]1C[C@@H](c2ncc(-c3ccc4c(c3)COc3cc5c(ccc6nc([C@@H]7CCCN7C(=O)[C@H](NC(=O)OC)c7ccccc7)[nH]c65)cc3-4)[nH]2)N(C(=O)[C@@H](NC(=O)OC)[C@@H](C)OC)C1 , the value recorded as its EC50 is 0.021

COC(=O)N[C@H](C(=O)N1CCC[C@H]1c1ncc(-c2ccc3c(c2)COc2cc4c(ccc5nc([C@@H]6C[C@H](C)CN6C(=O)[C@H](NC(=O)OC)c6ccccc6)[nH]c54)cc2-3)[nH]1)C(C)C has a reported EC50 of 0.016

###

# Tested on: NS5A chimeric genotype 2a JFH-1 replicon with genotype 2b MD2b-1 strain NS5A gene (M31 present)
# Measurement Notes: microbe, parasite or virus in culture
# Format: cell-based, HCV
# Assay Setup: Hepatitis C virus, read-out: 2b (t) (nM)
Field: EC50. Provide a value for each of the compounds that follow.
Please give a number only; it is taken to be in nM.

Recorded EC50 (compound COC[C@H]1C[C@@H](c2ncc(-c3ccc4c(c3)COc3cc5c(cc3-4)CCc3nc([C@@H]4CC[C@H](C)N4C(=O)[C@@H](NC(=O)OC)C(C)C)[nH]c3-5)[nH]2)N(C(=O)[C@H](NC(=O)OC)c2ccccc2)C1 [Example OH] ): 0.023

Measured EC50, COC(=O)N[C@H](C(=O)N1[C@@H](C)CC[C@H]1c1ncc(-c2ccc3c(c2)COc2cc4c(ccc5nc([C@@H]6CCCN6C(=O)[C@@H](NC(=O)OC)[C@@H](C)OC)[nH]c54)cc2-3)[nH]1)C(C)C [Compound 603] : 0.067

What the record says about COC(=O)N[C@H](C(=O)N1C[C@@H](COC(F)F)C[C@H]1c1nc2ccc3cc4c(cc3c2[nH]1)OCc1cc(-c2cnc([C@@H]3CC[C@H](C)N3C(=O)[C@@H](NC(=O)OC)C(C)C)[nH]2)ccc1-4)C(C)C [Example PS] : EC50 is 0.113

Summary for this compound, COC[C@H]1C[C@@H](c2nc3ccc4cc5c(cc4c3[nH]2)OCc2cc(-c3cnc([C@@H]4CCCN4C(=O)[C@H](NC(=O)C4CC4)c4ccccc4)[nH]3)ccc2-5)N(C(=O)[C@@H](NC(=O)OC)C(C)C)C1 [Compound 510] : EC50 is 0.017
